Molecular target: UniProt Q9Y233
Test: Measurement of PDE activity (HTRF cAMP kit, recombinant PDE10A)
Assay type: biochemical, human, rat and mouse
Settings: substrate 20 nM, 60 minutes at 29° C.
Description: a) Measurement of PDE Activity The recombinant PDE proteins are used in in vitro enzymatic reaction for measurement of PDE activity. These recombinant proteins, including PDE10A (human, rat and mouse PDE10) and isoforms of PDEs 1, 3, 4, and 5, were purchased from commercial vendor BPS Bioscience. The enzymatic activity of PDEs was determined by cAMP measurement kit from CisBio (IBA) using HTRF technology. […]
Structures can show the parent of a compound that is named as a salt.
Overview of reported IC50 across a group of compounds:

compound: COc1cc(COc2nn(C)c(=O)c3c(-c4ccncc4)csc23)cc(OC)c1
targetEntity: UniProt Q9Y233
IC50: < 100 nM
--
compound: COc1ccc(Oc2nn(C)c(=O)c3c(-c4ccncc4)csc23)cc1OC
targetEntity: UniProt Q9Y233
IC50: < 100 nM
--
compound: Cn1nc(OCc2cccnc2)c2scc(-c3ccncc3)c2c1=O
targetEntity: UniProt Q9Y233
IC50: < 100 nM
--
compound: Cn1nc(OCc2ccc3c(c2)OCO3)c2scc(-c3ccncc3)c2c1=O
targetEntity: UniProt Q9Y233
IC50: 100 to 200 nM
--
compound: Cn1nc(OCc2ccc(Cl)cc2)c2scc(-c3ccncc3)c2c1=O
targetEntity: UniProt Q9Y233
IC50: 200 to 500 nM
--
compound: Cn1nc(-c2ccnc(F)c2)c2scc(-c3ccncc3)c2c1=O [Example 104, bis(trifluoroacetate)]
targetEntity: UniProt Q9Y233
IC50: 100 to 200 nM
--
compound: Cn1nc(OCc2ccccn2)c2scc(-c3ccncc3)c2c1=O
targetEntity: UniProt Q9Y233
IC50: 100 to 200 nM
--
compound: Cn1nc(-c2ccc(C#N)cc2)c2scc(-c3ccncc3)c2c1=O
targetEntity: UniProt Q9Y233
IC50: < 100 nM
--
compound: N#CCCn1nc(-c2ccncc2)c2scc(-c3ccncc3)c2c1=O
targetEntity: UniProt Q9Y233
IC50: 100 to 200 nM
--
compound: Cn1nc(OCc2cccc(OC(F)F)c2)c2scc(-c3ccncc3)c2c1=O
targetEntity: UniProt Q9Y233
IC50: < 100 nM
--
compound: Cn1nc(-c2ccc3c(c2)OCO3)c2scc(-c3ccncc3)c2c1=O
targetEntity: UniProt Q9Y233
IC50: 200 to 500 nM
--
compound: Cn1nc(-c2ccc(Cl)cc2)c2scc(-c3ccncc3)c2c1=O [Example 110, trifluoroacetate]
targetEntity: UniProt Q9Y233
IC50: 200 to 500 nM
--
compound: Cn1nc(OCc2cccc(C(N)=O)c2)c2scc(-c3ccncc3)c2c1=O.O=C(O)C(F)(F)F [Example 67, trifluoroacetate]
targetEntity: UniProt Q9Y233
IC50: < 100 nM
--
compound: Cn1nc(-c2ccc3ncoc3c2)c2scc(-c3ccncc3)c2c1=O
targetEntity: UniProt Q9Y233
IC50: < 100 nM
--
compound: Cn1ccnc1COc1nn(C)c(=O)c2c(-c3ccncc3)csc12
targetEntity: UniProt Q9Y233
IC50: 200 to 500 nM
--
compound: Cn1nc(-c2ccc(C(F)(F)F)cc2)c2scc(-c3ccncc3)c2c1=O [Example 117, trifluoroacetate]
targetEntity: UniProt Q9Y233
IC50: 100 to 200 nM
--
compound: Cc1cnc(Cl)c(Oc2nn(C)c(=O)c3c(-c4ccncc4)csc23)c1 [Example 90, trifluoroacetate]
targetEntity: UniProt Q9Y233
IC50: < 100 nM
--
compound: COc1cccc(COc2nn(C)c(=O)c3c(-c4ccncc4)csc23)c1
targetEntity: UniProt Q9Y233
IC50: 100 to 200 nM
--
compound: CCn1nc(-c2ccncc2)c2scc(-c3cncnc3)c2c1=O
targetEntity: UniProt Q9Y233
IC50: < 100 nM
--
compound: Cn1nc(-c2cccc(OC(F)(F)F)c2)c2scc(-c3ccncc3)c2c1=O [Example 112, trifluoroacetate]
targetEntity: UniProt Q9Y233
IC50: 200 to 500 nM
--
compound: Cn1nc(-c2ccncc2)c2scc(-c3ccncc3)c2c1=O
targetEntity: UniProt Q9Y233
IC50: 100 to 200 nM
--
compound: CC(C)n1nc(-c2ccncc2)c2scc(-c3ccncc3)c2c1=O
targetEntity: UniProt Q9Y233
IC50: 200 to 500 nM
--
compound: CC(C)Oc1cccc(COc2nn(C)c(=O)c3c(-c4ccncc4)csc23)c1
targetEntity: UniProt Q9Y233
IC50: 200 to 500 nM
